- protocol-notes: BSK_3C_SRB: Viability Assessment in the BioMAP Diversity Plus: 3C Assay (AID 2283023);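 also: cells read 24 h after compound dosing; fitted both ways against DMSO so a hit may be signal rise or drop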
- study-conditions: primary human endothelial cells (HUVEC)
The source made the active and inactive calls. The calls were made as follows: active = hit-call score of the fitted dose curve at least 0.9, where 1 is the maximum; inactive = score below 0.9.
Can you answer with just one of these options? 1.0 (active), 0.0 (inactive)

item-smiles | answer-label
CN(C)C(=O)NC1(c2ccccc2)CCN(CCC[C@]2(c3ccc(Cl)c(Cl)c3)CCCN(C(=O)c3ccccc3)C2)CC1 | 1.0
C=CCCCCCCCCCCCC | 0.0

Could you check what this test reported for "O=Cc1ccccc1C=O" ?
0.0

I would be grateful if you could indicate the recorded call for "C/C=C/c1ccc(OC)cc1" .
0.0

Would you mind telling me which call this test gave "COC(=O)[C@H]1[C@H]2C[C@@H]3c4[nH]c5cc(OC)ccc5c4CCN3C[C@H]2C[C@@H](OC(=O)c2cc(OC)c(OC)c(OC)c2)[C@@H]1OC" ?
1.0

---

- target-under-test: Peroxisome proliferator-activated receptor gamma (Homo sapiens) (UniProt P37231)
- Sequence (P37231 whole entry, looked up): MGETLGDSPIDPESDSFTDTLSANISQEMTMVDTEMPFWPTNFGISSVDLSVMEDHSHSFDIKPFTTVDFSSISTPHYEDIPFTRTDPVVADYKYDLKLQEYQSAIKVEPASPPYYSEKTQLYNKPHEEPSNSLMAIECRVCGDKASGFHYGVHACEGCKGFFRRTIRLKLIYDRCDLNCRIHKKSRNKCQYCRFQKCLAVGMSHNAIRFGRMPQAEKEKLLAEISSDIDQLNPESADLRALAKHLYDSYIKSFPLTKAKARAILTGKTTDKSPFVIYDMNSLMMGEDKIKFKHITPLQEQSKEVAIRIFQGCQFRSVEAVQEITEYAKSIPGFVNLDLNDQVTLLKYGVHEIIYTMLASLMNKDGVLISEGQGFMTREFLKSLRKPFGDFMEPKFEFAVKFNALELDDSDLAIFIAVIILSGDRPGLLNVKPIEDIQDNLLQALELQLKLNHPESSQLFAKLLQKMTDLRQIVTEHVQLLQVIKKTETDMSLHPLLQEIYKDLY
- protocol-notes: ATG_PPARg_TRANS: Attagene TRANS-FACTORIAL HepG2 Assay for human Peroxisome Proliferator-activated Receptor-gamma (PPARg) (AID 2283007)
Results filed as inconclusive are left out. The source made the active and inactive calls. How the source made its calls: active means hit-call score of the fitted dose curve at least 0.9, where 1 is the maximum; inconclusive means response in the unintended direction; inactive means score below 0.9.
Give one outcome, nothing more. List: active, inactive

Past entries and their recorded results:
compound | answer-label
CCCCCCCCCC[N+](C)(C)[O-] | inactive
Cn1cnc2c1c(=O)[nH]c(=O)n2C | inactive
CC(=O)O[C@]1(C(C)=O)CC[C@H]2[C@@H]3C=C(Cl)C4=CC(=O)[C@@H]5C[C@@H]5[C@]4(C)[C@H]3CC[C@@]21C | inactive
CN(C)CCCN(C)CCCN(C)C | inactive
O=C(Oc1ccccc1)c1cccc(C(=O)Oc2ccccc2)c1 | active

What did the test return for CCC(C)N(C)C(=O)c1cc2ccccc2c(-c2ccccc2Cl)n1 (centres undefined) ?
inactive

Tell me the recorded outcome of this test for "O=C(NS(=O)(=O)/C=C/c1cccs1)c1ccc(F)cc1Br" .
active

Please let me know the test result on file for "C=CCCCCCCCCCCCC" .
inactive

Write down the call the test reported for this compound. Item: "C/C=C/C=C/C(=O)O"
inactive

Any idea what this test logged for "O=C(N[C@@H](c1ccccc1)[C@@H]1CCCCN1)c1cccc(C(F)(F)F)c1Cl" ?
inactive

Please indicate how the test categorized "C=CCc1ccc(OC)c(OC)c1" .
inactive

How did this test come out for "Oc1ccccc1O" ?
inactive

Could you kindly confirm the outcome this assay logged for "CN(C)C(=O)NC1(c2ccccc2)CCN(CCC[C@]2(c3ccc(Cl)c(Cl)c3)CCCN(C(=O)c3ccccc3)C2)CC1" ?
active

In this assay, the call recorded for "O=[Si]=O" was what?
inactive

Name the outcome recorded for C#CC(O)C(CC)CCCC (centres undefined) in the assay.
active

Hi team, can someone confirm the assay call for "Oc1ccc(O)cc1" ?
inactive

// param item: "NCCOCCOCCN" ; yields the recorded call
inactive

Hi, sorry to bother you, what did the test record for "NC(=Nc1ccccc1)Nc1ccccc1" ?
inactive

Please indicate how the test categorized "S=c1[nH]c2ccccc2s1" .
active

---

- Read-out: Cyclin Dependent Kinase Inhibitor 1A (CDKN1A), CDKN1A (gene 1026)
- protocol-notes: LTEA_HepaRG_CDKN1A: Life Technologies and Expression Analysis (LTEA) Assay for Cyclin Dependent Kinase Inhibitor 1A (CDKN1A) using HepaRG (AID 2283450)
- study-conditions: mRNA level, 48 h; actives raise or lower the signal
Calls of active or inactive are those of the source. The calls were made as follows: active = hit-call score of the fitted dose curve at least 0.9, where 1 is the maximum; inactive = score below 0.9.
Write down one outcome, taken from Yes = active, No = inactive

Past entries and their recorded results:
molecule | answer-label
OCC(CO)n1cnc(-c2ccc(F)cc2)c1-c1ccnc(Oc2ccccc2)n1 | No
CCCCCCC(CCCCCCCCCCC(=O)OCC(COC(C)=O)OC(C)=O)OC(C)=O (stereo not drawn) | No
S=c1[nH]c2ccccc2s1 | No
C=CCCCCCCCCCCCC | No

Record lookup: outcome of this test for "CCCCCCCC(=O)OC" ?
No

Which outcome did this test record for the molecule "COC(=O)CCC(=O)OC" ?
No

Can you look up the reported call for "Cn1cnc2c1c(=O)[nH]c(=O)n2C" for me?
No
